Target: Transcription initiation factor TFIID subunit 1 [1504-1635] (Homo sapiens)
Construct: 1504-1635
Sequence (P21675 whole entry): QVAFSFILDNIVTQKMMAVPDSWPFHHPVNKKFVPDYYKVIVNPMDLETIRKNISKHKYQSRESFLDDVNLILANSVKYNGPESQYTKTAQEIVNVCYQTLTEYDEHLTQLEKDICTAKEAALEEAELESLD
Experiment: TR-FRET Binding Assay
Method: After a 10 minute incubation at room temperature, biotin-ligand (0.04 uM final) was added. […] After forty minutes of equilibration at room temperature, the plates were read on an Envision instrument and IC50s calculated using a four parameter logistic model (XLFIT).
Recorded metric: IC50 (µM)
// note: answer is a bare numeric in µM

Can you share its IC50? I mean this molecule: CCOC(=O)c1c(C)[nH]c2c(=O)n(C)cc(C#CC(C)(O)CC)c12 (configuration not stated)
0.135

Can you share its IC50? I mean this molecule: CCC(C)C(C)OC(=O)c1c(C)[nH]c2c(=O)n(C)cc(C#CC(C)(C)O)c12 (configuration not stated)
0.0533

Can you share its IC50? I mean this molecule: Cc1[nH]c2c(=O)n(C)cc(C#CC(C)(O)C3CC3)c2c1-c1nnc(CO)o1 (configuration not stated)
0.0735

Can you share its IC50? I mean this molecule: "CC(=O)N1CCC(COC(=O)c2c(C)[nH]c3c(=O)n(C)cc(C#CC(C)(C)O)c23)CC1"
0.0201

Can you share its IC50? I mean this molecule: CCOC(=O)c1c(C)[nH]c2c(=O)n(C)cc(C#CC(C)(O)c3nccs3)c12 (configuration not stated)
0.122

Can you share its IC50? I mean this molecule: CCOC(=O)c1c(C)[nH]c2c(=O)n(C)cc(C#CC(O)(c3ccc(N(C)C)cc3)C(F)(F)F)c12 (configuration not stated)
0.0863

Can you share its IC50? I mean this molecule: "CCOC(=O)c1c(C)[nH]c2c(=O)n(C)cc(C#CC3(O)CCN(C(=O)CC)CC3)c12"
0.0589

###

Target: Transcription initiation factor TFIID subunit 1 [1504-1635] (Homo sapiens, UniProt P21675)
Construct: 1504-1635
Assay: TR-FRET Binding Assay
pIC50: −log10 of the molar value.
# if value of pIC50 reaches 7, tag met; if it stays below, tag not met

Some entries whose results are on file:
- Compound: "CN(C)C(=O)c1c[nH]c2c(=O)n(C)cc(C#CC(C)(C)O)c12"
  Target of assay: "Transcription initiation factor TFIID subunit 1 [1504-1635] (Homo sapiens, UniProt P21675)"
  Qualitative label: "not met"
- Compound: "CCC(C)(C)OC(=O)c1c(C)[nH]c2c(=O)n(C)cc(C#CC(C)(O)C3CC3)c12 (centres undefined)"
  Target of assay: "Transcription initiation factor TFIID subunit 1 [1504-1635] (Homo sapiens, UniProt P21675)"
  Qualitative label: "met"
- Compound: "Cc1[nH]c2c(=O)n(C)cc(C#CC(C)(O)c3ccccc3)c2c1C(=O)OC(C)C (centres undefined)"
  Target of assay: "Transcription initiation factor TFIID subunit 1 [1504-1635] (Homo sapiens, UniProt P21675)"
  Qualitative label: "met"
- Compound: "Cc1[nH]c2c(=O)n(C)cc(C#CC(C)(C)O)c2c1C(=O)OC(C)C(C)C (centres undefined)"
  Target of assay: "Transcription initiation factor TFIID subunit 1 [1504-1635] (Homo sapiens, UniProt P21675)"
  Qualitative label: "met"
- Compound: "Cc1cc([C@](C)(O)C#Cc2cn(C)c(=O)c3[nH]c(C)c(C(=O)OC(C)C(C)C)c23)no1 (some centres undefined)"
  Target of assay: "Transcription initiation factor TFIID subunit 1 [1504-1635] (Homo sapiens, UniProt P21675)"
  Qualitative label: "met"

Answer whether pIC50 of CCOC(=O)c1c(C)[nH]c2c(=O)n(C)cc(C#CC(C)(O)C3CC3)c12 (centres undefined) is greater than or equal to 7.
met

Answer whether pIC50 of "CCOC(=O)c1c(C)[nH]c2c(=O)n(C)cc(C#CC(C)(C)N)c12" is greater than or equal to 7.
not met

Answer whether pIC50 of CC(=O)NCCCOC(=O)c1c(C)[nH]c2c(=O)n(C)cc(C#CC(C)(O)C3CC3)c12 (centres undefined) is greater than or equal to 7.
met

###

Target: Transcription initiation factor TFIID subunit 1 [1381-1497] (Homo sapiens, UniProt P21675)
Construct: 1381-1497
Assay: TAF1-BD1 TR-FRET Binding Assay
Recorded metric: pIC50
Just so you know, pIC50 here is -log10 of the concentration in molar units; reply with that number alone.

- Compound: "CCOC(=O)c1c(C)[nH]c2c(=O)n(C)cc(C#CC(C)(O)CO)c12 (stereo not drawn)"
  pIC50: 6.10
- Compound: "CCOC(=O)c1c(C)[nH]c2c(=O)n(C)cc(C#CC(C)(O)CC)c12 (stereo not drawn)"
  pIC50: 6.08

Next item in the queue.
Can you share its pIC50? I mean this compound: "CCOC(=O)c1c(C)[nH]c2c(=O)n(C)cc(C#CC3(O)CCN(C(C)=O)CC3)c12"
5.83
